Target: human GPR17 receptor (Homo sapiens, UniProt Q13304)
Sequence (Q13304 whole entry): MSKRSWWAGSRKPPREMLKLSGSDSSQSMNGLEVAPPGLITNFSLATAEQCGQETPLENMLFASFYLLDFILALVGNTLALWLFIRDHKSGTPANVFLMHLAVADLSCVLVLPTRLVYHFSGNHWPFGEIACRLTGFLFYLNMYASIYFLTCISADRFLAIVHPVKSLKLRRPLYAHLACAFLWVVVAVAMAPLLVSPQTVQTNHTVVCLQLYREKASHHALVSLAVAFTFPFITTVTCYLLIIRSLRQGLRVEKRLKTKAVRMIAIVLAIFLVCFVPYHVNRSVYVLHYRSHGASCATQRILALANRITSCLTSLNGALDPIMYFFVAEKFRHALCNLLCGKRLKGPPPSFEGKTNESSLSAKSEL
Experiment: Calcium mobilization functional assay (Fluo-8, FLIPR TETRA) in HEK-293 hGPR17 (Gα-q assay)
Conditions: antagonism of MDL29,951 (~EC80) induced Ca2+ signal; cell line (HEK-293 hGPR17 or HEK-293 Suchi5 hGPR17) not given
Method: HEK-293 cells stably expressing the human GPR17 receptor (HEK-293 hGPR17) developed by Axxam (Bresso, Milan, Italy) were cultured at 37° C. in a humidified atmosphere of 5% CO2. Cells were grown in EMEM supplemented with FBS (10%), Penicillin/Streptomycin (1%), Ultraglutamine I (2 mM), puromycin (0.6 μg/mL), G418 (0.4 mg/mL), zeocin (50 μg/mL). […] Elevated intracellular calcium levels can then be measured with calcium-sensitive fluorescent dyes (e.g., Fluo 8-No Wash Dye). […]
IC50: recorded values
measurement.label: IC50

compound | assay.system | result
O=S(=O)(Nc1cc(F)c(C(F)(F)F)cc1F)c1cc(-c2ccccc2)[nH]c1F [Cpd 627] | human GPR17 receptor (Homo sapiens, UniProt Q13304) | 0.5 to 5 µM
N#Cc1ccc(NS(=O)(=O)c2c[nH]c(-c3ccccc3OC3CC3)c2)c(F)c1 [Cpd 397] | human GPR17 receptor (Homo sapiens, UniProt Q13304) | 0.5 to 5 µM
COc1nc(OCC(F)F)c(F)cc1NS(=O)(=O)c1c[nH]cc1-c1cccc(F)c1 [Cpd 460] | human GPR17 receptor (Homo sapiens, UniProt Q13304) | 0.5 to 5 µM
Cc1ccc(F)cc1-c1cc(S(=O)(=O)Nc2ccc(C#N)cc2F)c[nH]1 [Cpd 285] | human GPR17 receptor (Homo sapiens, UniProt Q13304) | < 0.5 µM
O=S(=O)(Nc1cc(F)c(C(F)(F)F)cc1F)c1c[nH]c(-c2ncccc2C(F)(F)F)c1 [Cpd 282] | human GPR17 receptor (Homo sapiens, UniProt Q13304) | 5 to 50 µM
O=S(=O)(Nc1cc(F)c(C(F)(F)F)cc1F)c1c[nH]c(-c2ccccc2)c1 [Cpd 071] | human GPR17 receptor (Homo sapiens, UniProt Q13304) | < 0.5 µM
N#Cc1ccc(NS(=O)(=O)c2c[nH]c(-c3ccccc3C(F)(F)F)c2)c(F)c1 [Cpd 079] | human GPR17 receptor (Homo sapiens, UniProt Q13304) | 0.5 to 5 µM
CC(c1ccccn1)c1cc(S(=O)(=O)Nc2ccc(C#N)cc2F)c[nH]1 (stereo not drawn) | human GPR17 receptor (Homo sapiens, UniProt Q13304) | 5 to 50 µM
Cc1cccc(-c2cc(S(=O)(=O)Nc3cc(F)c(C(F)(F)F)cc3F)c[nH]2)n1 [Cpd 279] | human GPR17 receptor (Homo sapiens, UniProt Q13304) | 0.5 to 5 µM
Cc1cccc(-c2cc(S(=O)(=O)Nc3ccc(C#N)cc3F)c[nH]2)c1C [Cpd 252] | human GPR17 receptor (Homo sapiens, UniProt Q13304) | 0.5 to 5 µM
COc1ccccc1-c1cc(S(=O)(=O)Nc2cc(F)c(OC(F)F)cc2F)c[nH]1 [Cpd 530] | human GPR17 receptor (Homo sapiens, UniProt Q13304) | < 0.5 µM
N#Cc1ccc(NS(=O)(=O)c2c[nH]c(-c3cc(F)cc(F)c3)c2)c(F)c1 [Cpd 104] | human GPR17 receptor (Homo sapiens, UniProt Q13304) | 0.5 to 5 µM
Cc1ccc(Cl)cc1-c1cc(S(=O)(=O)Nc2ccc(C#N)cc2F)c[nH]1 [Cpd 296] | human GPR17 receptor (Homo sapiens, UniProt Q13304) | 0.5 to 5 µM
O=S(=O)(Nc1ccc(F)cc1F)c1c[nH]c(-c2ccccc2F)c1 [Cpd 054] | human GPR17 receptor (Homo sapiens, UniProt Q13304) | 5 to 50 µM
N#Cc1ccc(NS(=O)(=O)c2c[nH]c(-c3ccc(F)cc3Cl)c2)c(F)c1 [Cpd 258] | human GPR17 receptor (Homo sapiens, UniProt Q13304) | < 0.5 µM

====

Target: human GPR17 receptor (Homo sapiens)
Assay: Calcium mobilization functional assay (Fluo-8, FLIPR TETRA) in HEK-293 hGPR17 (Gα-q assay)
Settings: antagonism of MDL29,951 (~EC80) induced Ca2+ signal; cell line (HEK-293 hGPR17 or HEK-293 Suchi5 hGPR17) not given
Protocol: HEK-293 cells stably expressing the human GPR17 receptor (HEK-293 hGPR17) developed by Axxam (Bresso, Milan, Italy) were cultured at 37° C. in a humidified atmosphere of 5% CO2. Cells were grown in EMEM supplemented with FBS (10%), Penicillin/Streptomycin (1%), Ultraglutamine I (2 mM), puromycin (0.6 μg/mL), G418 (0.4 mg/mL), zeocin (50 μg/mL). […] Elevated intracellular calcium levels can then be measured with calcium-sensitive fluorescent dyes (e.g., Fluo 8-No Wash Dye). […]

entry.smiles | IC50
O=S(=O)(Nc1cc(OC(F)F)c(Cl)cc1F)c1c[nH]c(-c2ccccc2)c1 | 500 to 5000 nM
O=S(=O)(Nc1cc(F)c(C(F)(F)F)cc1F)c1c[nH]c(-c2cccc(F)c2F)c1 | 500 to 5000 nM
O=S(=O)(Nc1ncc(C(F)(F)F)s1)c1c[nH]c(-c2ccccc2)c1 | 500 to 5000 nM
COc1cscc1-c1cc(S(=O)(=O)Nc2cc(F)c(C(F)(F)F)cc2F)c[nH]1 | 500 to 5000 nM
N#Cc1cc(F)c(NS(=O)(=O)c2c[nH]c(-c3cc(Cl)c(F)cc3F)c2)cc1Cl | 500 to 5000 nM
N#Cc1ccc(NS(=O)(=O)c2c[nH]c(-c3cccc4cccnc34)c2)c(F)c1 | < 500 nM
Cc1ccc(Cc2c[nH]cc2S(=O)(=O)Nc2ccc(C#N)cc2F)cc1 | 5000 to 50000 nM
N#Cc1ccc(F)c(-c2cc(S(=O)(=O)Nc3nc(F)c(OCCF)cc3F)c[nH]2)c1 | < 500 nM
N#CCOc1cc(F)c(NS(=O)(=O)c2c[nH]c(-c3cc(Cl)ccc3F)c2)cc1F | < 500 nM
COc1ccc(-c2cc(S(=O)(=O)Nc3cc(F)c(C(F)(F)F)cc3F)c[nH]2)nc1 | 500 to 5000 nM
O=S(=O)(Nc1cc(F)c(OC(F)F)cc1F)c1c[nH]c(-c2cccc3ccoc23)c1 | 500 to 5000 nM
O=S(=O)(Nc1cc(F)c(C(F)(F)F)cc1F)c1c[nH]c(-c2ccc(F)cn2)c1 | 500 to 5000 nM
O=S(=O)(Nc1cc(OC(F)F)c(Cl)cc1F)c1c[nH]cc1Cc1ccccc1 | 500 to 5000 nM
N#Cc1ccc(NS(=O)(=O)c2c[nH]c(-c3ccc(F)cn3)c2)c(F)c1 | 500 to 5000 nM
CSc1cccc(Cc2c[nH]cc2S(=O)(=O)Nc2ccc(C#N)cc2F)c1 | < 500 nM
O=S(=O)(Nc1cc(F)c(Br)cc1F)c1c[nH]c(-c2cccc3ccoc23)c1 | 500 to 5000 nM
O=S(=O)(Nc1cc(F)c(F)cc1F)c1c[nH]c(-c2c(F)cccc2F)c1 | 500 to 5000 nM
COc1nc(Br)cnc1NS(=O)(=O)c1c[nH]cc1-c1cccc(F)c1 | 500 to 5000 nM
O=S(=O)(Nc1cc(F)c(C(F)(F)F)cc1F)c1c[nH]cc1Cc1ccccc1 | 500 to 5000 nM
Cc1ccc(F)c(-c2cc(S(=O)(=O)Nc3ccc(C#N)cc3F)c[nH]2)c1 | < 500 nM
N#Cc1cc(F)c(NS(=O)(=O)c2c[nH]c(-c3ccoc3)c2)cc1F | < 500 nM
O=S(=O)(Nc1nc(F)c(OCCF)cc1F)c1c[nH]c(-c2cc(Cl)ccc2F)c1 | < 500 nM
Cc1cc(NS(=O)(=O)c2c[nH]c(-c3ccc(F)cc3)c2)c(F)cc1C#N | 500 to 5000 nM
N#CCOc1cc(F)c(NS(=O)(=O)c2c[nH]c(-c3ccccc3)c2F)cc1F | < 500 nM
COc1ccc(Cl)c(-c2cc(S(=O)(=O)Nc3ccc(C#N)cc3F)c[nH]2)c1 | < 500 nM
N#Cc1ccc(NS(=O)(=O)c2c[nH]cc2Cc2cccc(C(F)(F)F)c2)c(F)c1 | 500 to 5000 nM

====

Target: human GPR17 receptor (Homo sapiens)
Assay: Calcium mobilization functional assay (Fluo-8, FLIPR TETRA) in HEK-293 hGPR17 (Gα-q assay)
Details: antagonism of MDL29,951 (~EC80) induced Ca2+ signal; cell line (HEK-293 hGPR17 or HEK-293 Suchi5 hGPR17) not given
pIC50: −log10 of the molar value.
pIC50 values, listed per item

entry.smiles | assay.system | pIC50
COc1cc(Br)cnc1NS(=O)(=O)c1c[nH]c(-c2ccccn2)c1 | human GPR17 receptor (Homo sapiens) | 5.30 to 6.30
N#Cc1cnc(NS(=O)(=O)c2c[nH]c(-c3ccccc3)c2)c(F)c1 | human GPR17 receptor (Homo sapiens) | 5.30 to 6.30
N#Cc1ccc(NS(=O)(=O)c2c[nH]cc2-c2cccc(F)c2)c(F)c1 | human GPR17 receptor (Homo sapiens) | > 6.30
O=S(=O)(Nc1cc(F)c(C(F)(F)F)cc1F)c1c[nH]c(-c2cccc3cccnc23)c1 | human GPR17 receptor (Homo sapiens) | 5.30 to 6.30
O=S(=O)(Nc1cc(F)c(CO)cc1F)c1c[nH]c(-c2ccccc2)c1 | human GPR17 receptor (Homo sapiens) | 5.30 to 6.30
Cc1cnc(-c2cc(S(=O)(=O)Nc3cc(F)c(C(F)(F)F)cc3F)c[nH]2)s1 | human GPR17 receptor (Homo sapiens) | 5.30 to 6.30
COCc1cccnc1-c1cc(S(=O)(=O)Nc2cc(F)c(C(F)(F)F)cc2F)c[nH]1 | human GPR17 receptor (Homo sapiens) | 4.30 to 5.30
